Test system: Calu-3
Experiment: cell viability relative to DMSO; higher = less toxic
Conditions: 72 h; 10 nM

COMPOUND: N[C@@H](Cc1ccc(Cl)cc1)C(=O)O (racemic) [fenclonine-(+/-)]
UNIT STRING: %
cell viability: 101
--
COMPOUND: C[C@]12C[C@H](O)[C@H]3[C@@H](CCC4=CC(=O)CC[C@@]43C)[C@@H]1CC[C@@H]2C(=O)CO [corticosterone]
UNIT STRING: %
cell viability: 101
--
COMPOUND: Clc1ccc(C(Cn2ccnc2)OCc2ccc(Sc3ccccc3)cc2)c(Cl)c1 (configuration not stated) [fenticonazole]
UNIT STRING: %
cell viability: 88.6
--
COMPOUND: CCCCCCCC/C=C\CCCCCCCC(=O)NCCc1ccc(O)c(O)c1 [OLDA]
UNIT STRING: %
cell viability: 98.6
--
COMPOUND: CCN(CC)CCOc1ccc(Nc2ncc3cc(-c4c(Cl)cccc4Cl)c(=O)n(C)c3n2)cc1
UNIT STRING: %
cell viability: 99.5
--
COMPOUND: CC(C)(C)c1ccc(CN(Cc2cccc(OCC(=O)O)c2)S(=O)(=O)c2cccnc2)cc1 [evatanepag]
UNIT STRING: %
cell viability: 101
--
COMPOUND: COC(=O)C1=CO[C@@H](O)[C@@H]2C(CO)=CC[C@H]12 [genipin]
UNIT STRING: %
cell viability: 92.8

###

System: HepG2
Experiment: cell viability relative to DMSO; higher = less toxic
Conditions: 72 h; 10 nM
PROPERTY: cell viability (%)

MOLECULE: OC1(c2ccc(Cl)c(C(F)(F)F)c2)CCN(CCCC(c2ccc(F)cc2)c2ccc(F)cc2)CC1 [penfluridol]
NUMERIC VALUE: 108
//
MOLECULE: O=C(CN1CCNCC1)NC1CCCCC1 [esaprazole]
NUMERIC VALUE: 99.5
//
MOLECULE: C[N+](C)(C)CCCCCNCC12CC3CC(CC(C3)C1)C2 [IEM1460]
NUMERIC VALUE: 85.2
//
MOLECULE: CNS(=O)(=O)Nc1nccc(Cc2c(C)c3ccc(Oc4ncccn4)cc3oc2=O)c1F
NUMERIC VALUE: 91.8
//
MOLECULE: O=C([O-])C(O)[C@H](O)[C@@H](O)[C@H](O)[C@H](O)CO.O=C([O-])C(O)[C@H](O)[C@@H](O)[C@H](O)[C@H](O)CO.[Ca+2] (some centres not stated) [calcium-gluceptate]
NUMERIC VALUE: 95.1
//
MOLECULE: CC(C)NCCN(C(C)C)S(=O)(=O)c1ccc(Cl)cc1Cl [RN-1734]
NUMERIC VALUE: 89.7
//
MOLECULE: CN1CCc2nc(C(=O)N[C@@H]3C[C@@H](C(=O)N(C)C)CC[C@@H]3NC(=O)C(=O)Nc3ccc(Cl)cn3)sc2C1 [edoxaban]
NUMERIC VALUE: 94.9
//
MOLECULE: CN1CCN(CCc2ccc(Cl)c(Cl)c2)CC1 [BD-1063]
NUMERIC VALUE: 102
//
MOLECULE: CCCCCOc1c(OC)ccc2cc(C(=O)NCc3ccc4c(c3)OCO4)c(=O)[nH]c12 [JTE-907]
NUMERIC VALUE: 97.4
//
MOLECULE: COc1cc(C[C@H]2C(=O)OC[C@@H]2Cc2ccc(OC)c(OC)c2)ccc1O [arctigenin]
NUMERIC VALUE: 94.8
//
MOLECULE: Cc1ncc([N+](=O)[O-])n1CCO [metronidazole]
NUMERIC VALUE: 102
//
MOLECULE: CNCC[C@H](Oc1cccc2ccccc12)c1cccs1 [duloxetine]
NUMERIC VALUE: 102
